Examples of compounds with documented melting point follow.
Please give a number only; it is taken to be in °C.

# annotated cases, reported melting point shown
input.smiles	melting point / °C
O=C(CCCCCCNCc1ccc(-c2ccc3ncnc(Nc4ccc(OCc5cccc(F)c5)c(Cl)c4)c3c2)o1)NO	120
O=C(CCNCc1ccc(-c2ccc3ncnc(Nc4ccc(OCc5cccc(F)c5)c(Cl)c4)c3c2)o1)NO	170
O=C(CCCCCNCc1ccc(-c2ccc3ncnc(Nc4ccc(OCc5cccc(F)c5)c(Cl)c4)c3c2)o1)NO	121

In one line, give reported melting point of the entry O=C(CCCCOc1ccc2ncnc(Nc3ccc(F)c(Cl)c3)c2c1)NO .
85.9

---

- experiment.summary: Pharmacokinetic study of compound 12 formulation in mice
- Format: in vivo
- assay.context: IV Dose 20 mg/kg, Lung, hydrochloride salt in 30% CAPTISOL
measured.quantity: Cmax (µM)
Please give a number only; it is taken to be in µM.

In one line, give reported Cmax of the entry C#Cc1cccc(Nc2ncnc3cc(OC)c(OCCCCCCC(=O)NO)cc23)c1 .
15.2
